Provenance of the data: PubChem BioAssay (NCI)

- Tested on: ACHN renal
- PROTOCOL NOTES: NCI tumour cell line growth inhibition, 384-well format
QUANTITY KIND: TGI (µM)
One number for each entry, in µM.

### Prompt Report the value of TGI obtained on ACHN renal for `COc1ccc(-c2cc3nccn3c(Nc3ncccc3C(N)=O)n2)cc1OC` .
### Response 3.75

### Prompt Report the value of TGI obtained on ACHN renal for `CO[C@H]1/C=C/C[C@H](C)[C@@H](C)S(=O)(=O)NC(=O)c2ccc3c(c2)N(C[C@@H]2CC[C@H]21)C[C@@]1(CCCc2cc(Cl)ccc21)CO3` .
### Response 14.7

// moving on: another record for TGI
### Prompt Report the value of TGI obtained on ACHN renal for `CO[C@@]12[C@H](COC(N)=O)C3=C(C(=O)C(C)=C(N)C3=O)N1C[C@@H]1N[C@@H]12` .
### Response 0.844
